read-out: flavin-containing dimethylaniline monooxygenases 3 (FMO3), FMO3 (gene 2328); assay: LTEA_HepaRG_FMO3: Life Technologies and Expression Analysis (LTEA) Assay for flavin-containing dimethylaniline monooxygenases 3 (FMO3) using HepaRG (AID 2283453); details: mRNA level, 48 h; actives raise or lower the signal
Active and inactive are the calls of the source. The calls were made as follows: active = hit-call score of the fitted dose curve at least 0.9, where 1 is the maximum; inactive = score below 0.9.
Parameter call: string, one of active, inactive

Before answering, review these 2 worked examples.
>  <compound>
CN(C)CCOC(c1ccccc1)c1ccccc1

>  <group>
inactive

$$$$
>  <compound>
CCCCC=O

>  <group>
inactive

$$$$

**Query** Recorded call for `CCCCCCCCCCCCCCC` ?
**Result** inactive

**Query** Answer briefly: the call reported for `N=C(N)c1ccc(OCCCCCOc2ccc(C(=N)N)cc2)cc1` in this assay.
**Result** active

**Query** Hello, I am checking results. What call was entered for `CCCCc1oc2ccccc2c1C(=O)c1cc(I)c(OCCN(CC)CC)c(I)c1` ?
**Result** active

**Query** Outcome? `Cc1[nH]nc2c1N=C(c1ccccc1Cl)c1cc([N+](=O)[O-])ccc1N2`
**Result** active

**Query** Outcome? `O=C(c1ccccc1)c1ccccc1`
**Result** inactive

**Query** Recorded call for `CN(Cc1cnc2nc(N)nc(N)c2n1)c1ccc(C(=O)N[C@@H](CCC(=O)O)C(=O)O)cc1` ?
**Result** inactive

**Query** Outcome logged for CCC(C)c1ccccc1O (stereo unspecified) in this assay:
**Result** inactive

**Query** # outcome recorded in this test, key = `O=C1NS(=O)(=O)c2ccccc21`
**Result** inactive

**Query** Status in this test for `CC(=O)Nc1ccc(O)cc1` ?
**Result** inactive

---

experiment: CCTE_Shafer_MEA_dev_burst_duration_mean: CCTE's Neural Network Formation Assay for Mean Burst Duration, Shafer Lab (AID 2284045)
Activity calls are given as the source filed them. How the source made its calls: active means hit-call score of the fitted dose curve at least 0.9, where 1 is the maximum; inactive means score below 0.9.
Outcome (select one): active, inactive

Observe how each entry below is paired with its result.
>  <compound>
O=C(O)C(F)(F)OC(F)(F)C(F)(F)OC(F)(F)C(F)(F)OC(F)(F)C(F)(F)C(F)(F)C(F)(F)F

>  <group>
inactive

$$$$
>  <compound>
CN(C)CCOC(c1ccccc1)c1ccccc1

>  <group>
inactive

$$$$
>  <compound>
NC(C(F)(F)F)C(F)(F)F

>  <group>
inactive

$$$$
>  <compound>
CC(C)c1c(C(=O)Nc2ccccc2)c(-c2ccccc2)c(-c2ccc(F)cc2)n1CC[C@@H](O)C[C@@H](O)CC(=O)O

>  <group>
active

$$$$
>  <compound>
O=C(C=C(O)C(F)(F)F)C(F)(F)F

>  <group>
inactive

$$$$
>  <compound>
O=CC(F)(F)C(F)(F)C(F)(F)F

>  <group>
inactive

$$$$
>  <compound>
O=P(O)(O)CCC(F)(F)C(F)(F)C(F)(F)C(F)(F)C(F)(F)C(F)(F)F

>  <group>
inactive

$$$$
>  <compound>
O=P(O)(O)CCC(F)(F)C(F)(F)C(F)(F)C(F)(F)C(F)(F)C(F)(F)C(F)(F)C(F)(F)F

>  <group>
inactive

$$$$
>  <compound>
O=C(F)C(F)(F)C(F)(F)C(F)(F)C(F)F

>  <group>
inactive

$$$$
>  <compound>
O=C(O)CCC(F)(F)C(F)(F)C(F)(F)C(F)(F)C(F)(F)F

>  <group>
inactive

$$$$

**Query** Which outcome did this test record for the compound `COC(=O)C(F)(F)C(F)(F)C(F)(F)F` ?
**Result** inactive

---

test: ATG_PXRE_CIS: Attagene CIS-FACTORIAL HepG2 Assay for human Pregnane X Receptor Element (PXRE) (AID 2282957); conditions: HepG2 Attagene CIS-FACTORIAL PXRE reporter, mRNA; actives raise or lower the signal
Calls of active or inactive are those of the source. Rule for the calls: active = hit-call score of the fitted dose curve at least 0.9, where 1 is the maximum; inactive = score below 0.9.
Permitted responses: true (1) (active), false (0) (inactive)

Reference set (7 entries):
>  <compoundStructureString>
CCN(CC)CC

>  <group>
false (0)

$$$$
>  <compoundStructureString>
Nc1ccc(O)c(C(=O)O)c1

>  <group>
false (0)

$$$$
>  <compoundStructureString>
Cc1ccc(C)c(S(=O)(=O)O)c1

>  <group>
false (0)

$$$$
>  <compoundStructureString>
CCOC(C)=O

>  <group>
false (0)

$$$$
>  <compoundStructureString>
CCCCC=O

>  <group>
true (1)

$$$$
>  <compoundStructureString>
CCCCc1ccc2ccccc2c1S(=O)(=O)O

>  <group>
true (1)

$$$$
>  <compoundStructureString>
O=C(NO)c1ccccc1

>  <group>
false (0)

$$$$

Okay, next one:
**Query** GET /call?item= `O=C(Nc1cccc([N+](=O)[O-])c1)c1cc2ccccc2cc1O` returns the recorded outcome of this test.
**Result** true (1)

---

test: CCTE_Shafer_MEA_dev_inter_network_spike_interval_mean: CCTE's Neural Network Formation Assay for Mean Inter-network Spike Interval, Shafer Lab (AID 2284047)
The source made the active and inactive calls. The calls were made as follows: active = hit-call score of the fitted dose curve at least 0.9, where 1 is the maximum; inactive = score below 0.9.
Parameter call: string, one of Y (active), N (inactive)

Would you please look over these solved cases?
>  <compound>
O=P(O)(O)CCC(F)(F)C(F)(F)C(F)(F)C(F)(F)C(F)(F)C(F)(F)F

>  <group>
N

$$$$
>  <compound>
NC(C(F)(F)F)C(F)(F)F

>  <group>
N

$$$$
>  <compound>
CC(C)c1c(C(=O)Nc2ccccc2)c(-c2ccccc2)c(-c2ccc(F)cc2)n1CC[C@@H](O)C[C@@H](O)CC(=O)O

>  <group>
Y

$$$$
>  <compound>
OCC(F)(F)C(F)(F)C(F)(F)C(F)(F)C(F)(F)C(F)(F)C(F)(F)C(F)(F)C(F)(F)C(F)(F)C(F)(F)F

>  <group>
N

$$$$
>  <compound>
FCOC(C(F)(F)F)C(F)(F)F

>  <group>
N

$$$$

Attention now turns to another entry.
**Query** Fill in: this test's call for `CC(=O)Nc1ccc(O)cc1` is ___
**Result** N

---

read-out: Glutamate-cysteine ligase regulatory (GCLM), GCLM (gene 2730); experiment: LTEA_HepaRG_GCLM: Life Technologies and Expression Analysis (LTEA) Assay for Glutamate-cysteine ligase regulatory (GCLM) using HepaRG (AID 2283500); conditions: mRNA level, 48 h; actives raise or lower the signal
Activity calls are given as the source filed them. The calls were made as follows: active = hit-call score of the fitted dose curve at least 0.9, where 1 is the maximum; inactive = score below 0.9.
metricName: AC50

>  <compoundStructureString>
CCCCCCCCCCCCOS(=O)(=O)O

>  <AC50>
inactive

$$$$
>  <compoundStructureString>
O=C(CCCN1CCC(O)(c2ccc(Cl)cc2)CC1)c1ccc(F)cc1

>  <AC50>
71.9 µM (active)

$$$$
>  <compoundStructureString>
O=C1NS(=O)(=O)c2ccccc21

>  <AC50>
inactive

$$$$
>  <compoundStructureString>
CC(=O)Nc1ccc(O)cc1

>  <AC50>
inactive

$$$$
>  <compoundStructureString>
CN(Cc1cnc2nc(N)nc(N)c2n1)c1ccc(C(=O)N[C@@H](CCC(=O)O)C(=O)O)cc1

>  <AC50>
inactive

$$$$

**Query** // lookup AC50 for `CS(=O)(=O)c1ccc([C@@H](CC2CCCC2)C(=O)Nc2cnccn2)cc1Cl`
**Result** 50 µM (active)

**Query** Entry `Cc1[nH]nc2c1N=C(c1ccccc1Cl)c1cc([N+](=O)[O-])ccc1N2` : reported AC50 = ?
**Result** inactive

---

target: Cellular tumor antigen p53 (Homo sapiens); experiment: ATG_p53_CIS: Attagene CIS-FACTORIAL HepG2 Assay for human p53 Transcription Factor (AID 2282994); conditions: HepG2 p53 cis-element reporter, Attagene mRNA; actives raise or lower the signal
Activity calls are given as the source filed them. Rule for the calls: active = hit-call score of the fitted dose curve at least 0.9, where 1 is the maximum; inactive = score below 0.9.
metricName: AC50

Consider the following illustrative entries.
>  <compound>
C[C@]12CC[C@@H]3c4ccc(O)cc4CC[C@H]3[C@@H]1CC[C@@H]2OC(=O)CCC1CCCC1

>  <valueReported>
inactive

$$$$
>  <compound>
C=CC(=O)OCCN(CC)CC

>  <valueReported>
169 µM (active)

$$$$
>  <compound>
Brc1cc(Br)c(Oc2c(Br)cc(Br)c(Br)c2Br)cc1Br

>  <valueReported>
inactive

$$$$
>  <compound>
Oc1ccc(Cc2ccccc2O)cc1

>  <valueReported>
inactive

$$$$
>  <compound>
Cc1ccc(C)c(S(=O)(=O)O)c1

>  <valueReported>
inactive

$$$$

**Query** Any idea what its AC50 is? The compound is COC(O)c1ccccc1 (stereo not drawn)
**Result** inactive

**Query** // returns reported AC50 for input `O=C(CCCN1CCC(O)(c2ccc(Cl)cc2)CC1)c1ccc(F)cc1`
**Result** 46.2 µM (active)

**Query** Consider the compound `C/C=C/C(=O)C1=C(C)CCCC1(C)C` and give its measured AC50.
**Result** 164 µM (active)

**Query** What does the record list as AC50 for COCC1CCC(CO)CC1 (stereo not drawn) ?
**Result** inactive

**Query** So what does the record say about AC50 for `O=c1cc(-c2ccccc2)oc2ccc3ccccc3c12` ?
**Result** inactive

**Query** Can you share its AC50? I mean this compound: `C=CC(=O)OCC(CO)(COCC(COC(=O)C=C)(COC(=O)C=C)COC(=O)C=C)COC(=O)C=C`
**Result** 2.86 µM (active)

**Query** Recorded AC50 of `CCCC=O` , please.
**Result** inactive

**Query** Look up AC50 for this compound: `CCCCCCCCCCCC[N+](C)(C)CCCCCCCCCCCC`
**Result** 10.4 µM (active)
